Ref: patent US12371426B2

Biological target: SMARCA2 (Homo sapiens, UniProt P51531)
Sequence (P51531 whole entry): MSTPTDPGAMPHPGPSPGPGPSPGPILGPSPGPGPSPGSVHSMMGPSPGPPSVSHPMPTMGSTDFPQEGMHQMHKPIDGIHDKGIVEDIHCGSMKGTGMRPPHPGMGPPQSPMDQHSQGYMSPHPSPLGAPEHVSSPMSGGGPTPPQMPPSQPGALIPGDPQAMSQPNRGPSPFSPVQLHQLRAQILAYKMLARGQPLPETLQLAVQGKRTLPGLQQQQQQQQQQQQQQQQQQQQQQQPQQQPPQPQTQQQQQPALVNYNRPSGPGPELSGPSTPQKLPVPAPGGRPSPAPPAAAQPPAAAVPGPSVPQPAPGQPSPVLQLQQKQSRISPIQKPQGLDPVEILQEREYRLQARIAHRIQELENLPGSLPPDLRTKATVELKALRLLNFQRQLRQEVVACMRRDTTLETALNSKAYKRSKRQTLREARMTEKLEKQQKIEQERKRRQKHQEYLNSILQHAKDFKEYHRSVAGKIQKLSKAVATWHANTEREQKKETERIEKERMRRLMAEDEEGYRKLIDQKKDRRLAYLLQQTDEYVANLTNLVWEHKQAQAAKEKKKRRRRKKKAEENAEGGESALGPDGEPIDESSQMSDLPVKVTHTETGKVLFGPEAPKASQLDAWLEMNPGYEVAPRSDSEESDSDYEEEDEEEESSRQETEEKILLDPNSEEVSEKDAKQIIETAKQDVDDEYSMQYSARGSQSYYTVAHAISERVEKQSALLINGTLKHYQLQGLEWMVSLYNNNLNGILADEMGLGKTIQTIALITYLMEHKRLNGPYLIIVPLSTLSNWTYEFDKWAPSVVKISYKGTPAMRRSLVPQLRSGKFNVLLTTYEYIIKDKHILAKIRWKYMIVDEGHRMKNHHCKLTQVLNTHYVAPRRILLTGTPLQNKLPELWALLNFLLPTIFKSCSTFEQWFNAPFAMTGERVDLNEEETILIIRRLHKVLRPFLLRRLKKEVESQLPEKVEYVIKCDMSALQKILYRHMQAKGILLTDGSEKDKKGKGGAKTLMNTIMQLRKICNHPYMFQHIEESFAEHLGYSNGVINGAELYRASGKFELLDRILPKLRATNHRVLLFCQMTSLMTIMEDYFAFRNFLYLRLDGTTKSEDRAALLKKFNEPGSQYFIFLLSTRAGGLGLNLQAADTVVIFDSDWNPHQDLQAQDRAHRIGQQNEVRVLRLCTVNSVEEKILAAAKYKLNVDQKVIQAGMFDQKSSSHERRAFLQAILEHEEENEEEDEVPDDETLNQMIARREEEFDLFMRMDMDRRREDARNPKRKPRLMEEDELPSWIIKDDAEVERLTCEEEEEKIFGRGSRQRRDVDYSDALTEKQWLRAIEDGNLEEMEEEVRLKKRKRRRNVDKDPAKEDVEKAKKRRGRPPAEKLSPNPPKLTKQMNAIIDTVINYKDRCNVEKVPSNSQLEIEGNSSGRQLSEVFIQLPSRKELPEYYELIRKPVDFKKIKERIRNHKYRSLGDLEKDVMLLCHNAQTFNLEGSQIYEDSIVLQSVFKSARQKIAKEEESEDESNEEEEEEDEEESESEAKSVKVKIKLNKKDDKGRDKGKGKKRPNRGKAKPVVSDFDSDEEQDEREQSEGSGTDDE
Experiment: SMARCA2 degradation in NCI-H838 cells by Western blot
Format: cell-based
Design: endogenous in cells; host or cells: NCI-H838 (ATCC CRL-5844)
Details: 16 hours
experimental readout: SMARCA2 @ 100 nM (% SMARCA2 degradation)

- compound: "Cc1ncsc1-c1ccc([C@H](C)NC(=O)[C@@H]2C[C@@H](O)CN2C(=O)[C@@H](NC(=O)CN2CCN(c3cc(-c4cc(F)ccc4O)nnc3N)CC2)C(C)(C)C)cc1"
  measured value: "94%"
- compound: "Cc1ncsc1-c1ccc(C(NC(=O)[C@@H]2C[C@@H](O)CN2C(=O)[C@@H](NC(=O)CC2CCN(c3cc(-c4cccc(F)c4O)nnc3N)CC2)C(C)(C)C)C(F)(F)F)cc1 (single isomer, unassigned) [Compound 77]"
  measured value: "9%"
- compound: "Cc1ncsc1-c1ccc([C@H](C)NC(=O)[C@@H]2C[C@@H](O)CN2C(=O)[C@@H](NC(=O)C(C)C2CCN(c3cc(-c4cccc(F)c4O)nnc3N)CC2)C(C)(C)C)cc1 (single isomer, unassigned)"
  measured value: "7%"
- compound: "Cc1ncsc1-c1ccc([C@H](C)NC(=O)[C@@H]2C[C@@H](O)CN2C(=O)[C@@H](NC(=O)CN2CCN(c3cc(C(N)=O)nnc3N)CC2)C(C)(C)C)cc1"
  measured value: "21%"
- compound: "Cc1ncsc1-c1ccc([C@H](C)NC(=O)[C@@H]2C[C@@H](O)CN2C(=O)[C@@H](NC(=O)CC2CCN(c3cc(-c4cc(F)ccc4O)nnc3N)CC2)C(C)(C)C)cc1"
  measured value: "75%"
